experiment: Luminescence activity assay of purified Gaussia luciferase mutants on coelenterazine derivative ZS2; assay type: biochemical; design: key: ratio of mutant luminescence intensity to wild-type Gaussia luciferase; conditions: Substrate ZS2 (Table 16)
recorded-metric: Activity of mutant relative to wild-type Gaussia luciferase without the signal peptide

• P84A E102A S103T E110A V138D: Gaussia luciferase mutant (protein, SIGNAL (1)..(17), Gaussia luciferase mutant) MGVKVLFALICIAVAEAKPTENNEDFNIVAVASNFATTDLDADRGKLPGKKLPLEVLKEMEANARKAGCTRGCLICLSHIKCTAKMKKFIPGRCHTYEGDKATAQGGIGAAIVDIPEIPGFKDLEPMEQFIAQVDLCDDCTTGCLKGLANVQCSDLLKKWLPQRCATFASKIQGQVDKIKGAGGD = 4.252
• K66R H79K P84K E102D S103I A104G L124M V138E: Gaussia luciferase mutant (protein, SIGNAL (1)..(17), Gaussia luciferase mutant) MGVKVLFALICIAVAEAKPTENNEDFNIVAVASNFATTDLDADRGKLPGKKLPLEVLKEMEANARRAGCTRGCLICLSKIKCTKKMKKFIPGRCHTYEGDKDIGQGGIGEAIVDIPEIPGFKDMEPMEQFIAQVDLCEDCTTGCLKGLANVQCSDLLKKWLPQRCATFASKIQGQVDKIKGAGGD = 0.459
